- System: MARK3;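 also: KINOMEscan kinase panel screen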
- MEASUREMENT PARAMETERS: concentration: 1 μM, replicates: in singlicate; n = 1
RECORDED ENDPOINT: %Inh (%)
Respond with the bare value in %.

Here are 4 molecules together with their reported answers.
LINE NOTATION: COC(=O)c1c(-c2ccccc2)c2cc(C)ccc2c(=O)n1Cc1ccccc1
SUBJECT OF TEST: MARK3
%Inh, %: 0
--
LINE NOTATION: COc1ccc(-c2coc3ccc(-c4nnc(SCc5cccc(C#N)c5)o4)cc23)cc1
SUBJECT OF TEST: MARK3
%Inh, %: 10
--
LINE NOTATION: O=c1cc(N2CCOCC2)nc2n(Cc3ccc(F)c(Cl)c3)ccn12
SUBJECT OF TEST: MARK3
%Inh, %: 0
--
LINE NOTATION: CCS(=O)(=O)c1ccc(OC)c(Nc2ncc(-c3ccc(F)cc3)o2)c1.Cl
SUBJECT OF TEST: MARK3
%Inh, %: 0

Data request: GET /values?readout=%Inh&item= `Cc1cc(Nc2nc(-c3cccc(C)n3)nc3ccccc23)ccn1`
Data returned: 22

Data request: State the recorded %Inh for this entry: `COc1cccc(C2=C(N(C)c3ccccc3)C(=O)NC2=O)c1`
Data returned: 0

Data request: Fill in the blank: the reported %Inh of `Cl.NS(=O)(=O)c1cccc(Nc2cc(-c3ccc(F)cc3)n[nH]2)c1` is ____.
Data returned: 14

Data request: # input molecule: `COc1cc(Nc2ccnc3ccc(C(F)(F)F)cc23)cc(OC)c1OC` ; wanted: its %Inh
Data returned: 0

Where do the numbers come from? From paper PMC5540273.
